# Tested on: Staphylococcus aureus 2
# PROCEDURE SUMMARY: IO staining of colonies of beta-D-galactosidase positive/negative bacteria (Table IVb)
# Assay type: cell-based
# CONDITION DESCRIPTION: Staphylococcus aureus strain 2, b-gal −; 24 h on Nutrient Agar, 150 mg/l indicator, 100 mg/l IPTG
PROPERTY LABEL: G: Growth of colonies

[[record]]
molecule = "COc1ccc(C(=O)c2ccccc2-n2cc(O[C@@H]3O[C@H](CO)[C@H](O)[C@H](O)[C@H]3O)c3ccccc32)c(OC)c1 [Indicator I25a]"
recorded_value = "+"

[[record]]
molecule = "COc1ccc(C(=O)c2ccccc2-n2cc(O[C@@H]3O[C@H](CO)[C@H](O)[C@H](O)[C@H]3O)c3c(Cl)c(Br)ccc32)c(OC)c1 [Indicator I28a]"
recorded_value = "+/−"

[[record]]
molecule = "O=C(c1ccccc1)c1ccccc1-n1cc(O[C@@H]2O[C@H](CO)[C@H](O)[C@H](O)[C@H]2O)c2ccc(Cl)cc21 [Indicator I21a]"
recorded_value = "+/−"

[[record]]
molecule = "O=C(c1ccccc1)c1ccccc1-n1cc(O[C@@H]2O[C@H](CO)[C@H](O)[C@H](O)[C@H]2O)c2c(Cl)c(Br)ccc21 [Indicator I22a]"
recorded_value = "−"

[[record]]
molecule = "Cn1cccc1C(=O)c1ccccc1-n1cc(O[C@@H]2O[C@H](CO)[C@H](O)[C@H](O)[C@H]2O)c2ccc(Cl)cc21 [Indicator I31a]"
recorded_value = "+"

[[record]]
molecule = "COc1ccc(C(=O)c2ccccc2-n2cc(O[C@@H]3O[C@H](CO)[C@H](O)[C@H](O)[C@H]3O)c3ccc(Cl)cc32)c(OC)c1 [Indicator I27a]"
recorded_value = "+/−"

[[record]]
molecule = "CC(=O)c1ccccc1-n1cc(O[C@@H]2O[C@H](CO)[C@H](O)[C@H](O)[C@H]2O)c2ccc(Cl)cc21 [Indicator I16a]"
recorded_value = "+/−"


----------
# Test system: Escherichia coli 61
# PROCEDURE SUMMARY: IO staining of colonies of beta-D-galactosidase positive/negative bacteria (Table IVb)
# Format: cell-based
# CONDITION DESCRIPTION: Escherichia coli strain 61, b-gal +; 24 h on Nutrient Agar, 150 mg/l indicator, 100 mg/l IPTG
PROPERTY LABEL: F: Fluorescence of colonies

[[record]]
compound = "O=C(c1ccccc1)c1ccccc1-n1cc(O[C@@H]2O[C@H](CO)[C@H](O)[C@H](O)[C@H]2O)c2c(Cl)c(Br)ccc21 [Indicator I22a]"
property_label = "F: Fluorescence of colonies"
recorded_value = "+/−"

[[record]]
compound = "CC(=O)c1ccccc1-n1cc(O[C@@H]2O[C@H](CO)[C@H](O)[C@H](O)[C@H]2O)c2ccc(Cl)cc21 [Indicator I16a]"
property_label = "F: Fluorescence of colonies"
recorded_value = "+"

[[record]]
compound = "COc1ccc(C(=O)c2ccccc2-n2cc(O[C@@H]3O[C@H](CO)[C@H](O)[C@H](O)[C@H]3O)c3ccc(Cl)cc32)c(OC)c1 [Indicator I27a]"
property_label = "F: Fluorescence of colonies"
recorded_value = "++"

[[record]]
compound = "COc1ccc(C(=O)c2ccccc2-n2cc(O[C@@H]3O[C@H](CO)[C@H](O)[C@H](O)[C@H]3O)c3c(Cl)c(Br)ccc32)c(OC)c1 [Indicator I28a]"
property_label = "F: Fluorescence of colonies"
recorded_value = "+/−"

[[record]]
compound = "O=C(c1ccccc1)c1ccccc1-n1cc(O[C@@H]2O[C@H](CO)[C@H](O)[C@H](O)[C@H]2O)c2ccc(Cl)cc21 [Indicator I21a]"
property_label = "F: Fluorescence of colonies"
recorded_value = "+"

[[record]]
compound = "Cn1cccc1C(=O)c1ccccc1-n1cc(O[C@@H]2O[C@H](CO)[C@H](O)[C@H](O)[C@H]2O)c2ccc(Cl)cc21 [Indicator I31a]"
property_label = "F: Fluorescence of colonies"
recorded_value = "+/−"

[[record]]
compound = "COc1ccc(C(=O)c2ccccc2-n2cc(O[C@@H]3O[C@H](CO)[C@H](O)[C@H](O)[C@H]3O)c3ccccc32)c(OC)c1 [Indicator I25a]"
property_label = "F: Fluorescence of colonies"
recorded_value = "++"


----------
# System: Enterobacter aerogenes 242
# PROCEDURE SUMMARY: IO staining of colonies of beta-D-galactosidase positive/negative bacteria (Table IVb); further: key: −: absent; +/−: weak; +: strong; ++: very strong
# Assay type: cell-based
# CONDITION DESCRIPTION: Enterobacter aerogenes strain 242, b-gal +; 24 h on Nutrient Agar, 150 mg/l indicator, 100 mg/l IPTG
PROPERTY LABEL: G: Growth of colonies

[[record]]
compound = "CC(=O)c1ccccc1-n1cc(O[C@@H]2O[C@H](CO)[C@H](O)[C@H](O)[C@H]2O)c2ccc(Cl)cc21 [Indicator I16a]"
recorded_value = "+"

[[record]]
compound = "COc1ccc(C(=O)c2ccccc2-n2cc(O[C@@H]3O[C@H](CO)[C@H](O)[C@H](O)[C@H]3O)c3ccc(Cl)cc32)c(OC)c1 [Indicator I27a]"
recorded_value = "+"

[[record]]
compound = "Cn1cccc1C(=O)c1ccccc1-n1cc(O[C@@H]2O[C@H](CO)[C@H](O)[C@H](O)[C@H]2O)c2ccc(Cl)cc21 [Indicator I31a]"
recorded_value = "+"


----------
# Tested on: Shigella sonnei 133
# PROCEDURE SUMMARY: IO staining of colonies of beta-D-galactosidase positive/negative bacteria (Table IVb)
# Type: cell-based
# CONDITION DESCRIPTION: Shigella sonnei strain 133, b-gal +/−; 24 h on Nutrient Agar, 150 mg/l indicator, 100 mg/l IPTG
PROPERTY LABEL: F: Fluorescence of colonies

[[record]]
compound = "O=C(c1ccccc1)c1ccccc1-n1cc(O[C@@H]2O[C@H](CO)[C@H](O)[C@H](O)[C@H]2O)c2c(Cl)c(Br)ccc21 [Indicator I22a]"
system_tested = "Shigella sonnei 133"
property_label = "F: Fluorescence of colonies"
recorded_value = "+/−"

[[record]]
compound = "O=C(c1ccccc1)c1ccccc1-n1cc(O[C@@H]2O[C@H](CO)[C@H](O)[C@H](O)[C@H]2O)c2ccc(Cl)cc21 [Indicator I21a]"
system_tested = "Shigella sonnei 133"
property_label = "F: Fluorescence of colonies"
recorded_value = "+"

[[record]]
compound = "COc1ccc(C(=O)c2ccccc2-n2cc(O[C@@H]3O[C@H](CO)[C@H](O)[C@H](O)[C@H]3O)c3c(Cl)c(Br)ccc32)c(OC)c1 [Indicator I28a]"
system_tested = "Shigella sonnei 133"
property_label = "F: Fluorescence of colonies"
recorded_value = "+/−"

[[record]]
compound = "COc1ccc(C(=O)c2ccccc2-n2cc(O[C@@H]3O[C@H](CO)[C@H](O)[C@H](O)[C@H]3O)c3ccc(Cl)cc32)c(OC)c1 [Indicator I27a]"
system_tested = "Shigella sonnei 133"
property_label = "F: Fluorescence of colonies"
recorded_value = "++"

[[record]]
compound = "Cn1cccc1C(=O)c1ccccc1-n1cc(O[C@@H]2O[C@H](CO)[C@H](O)[C@H](O)[C@H]2O)c2ccc(Cl)cc21 [Indicator I31a]"
system_tested = "Shigella sonnei 133"
property_label = "F: Fluorescence of colonies"
recorded_value = "+/−"

[[record]]
compound = "CC(=O)c1ccccc1-n1cc(O[C@@H]2O[C@H](CO)[C@H](O)[C@H](O)[C@H]2O)c2ccc(Cl)cc21 [Indicator I16a]"
system_tested = "Shigella sonnei 133"
property_label = "F: Fluorescence of colonies"
recorded_value = "+"

[[record]]
compound = "COc1ccc(C(=O)c2ccccc2-n2cc(O[C@@H]3O[C@H](CO)[C@H](O)[C@H](O)[C@H]3O)c3ccccc32)c(OC)c1 [Indicator I25a]"
system_tested = "Shigella sonnei 133"
property_label = "F: Fluorescence of colonies"
recorded_value = "++"


----------
# Tested on: Serratia marcescens 40
# PROCEDURE SUMMARY: IO staining of colonies of beta-D-galactosidase positive/negative bacteria (Table IVb)
# Format: cell-based
# CONDITION DESCRIPTION: Serratia marcescens strain 40, b-gal +; 24 h on Nutrient Agar, 150 mg/l indicator, 100 mg/l IPTG
PROPERTY LABEL: C: Color of colonies

[[record]]
compound = "O=C(c1ccccc1)c1ccccc1-n1cc(O[C@@H]2O[C@H](CO)[C@H](O)[C@H](O)[C@H]2O)c2c(Cl)c(Br)ccc21 [Indicator I22a]"
property_label = "C: Color of colonies"
recorded_value = "+"

[[record]]
compound = "CC(=O)c1ccccc1-n1cc(O[C@@H]2O[C@H](CO)[C@H](O)[C@H](O)[C@H]2O)c2ccc(Cl)cc21 [Indicator I16a]"
property_label = "C: Color of colonies"
recorded_value = "+"

[[record]]
compound = "COc1ccc(C(=O)c2ccccc2-n2cc(O[C@@H]3O[C@H](CO)[C@H](O)[C@H](O)[C@H]3O)c3ccc(Cl)cc32)c(OC)c1 [Indicator I27a]"
property_label = "C: Color of colonies"
recorded_value = "+"

[[record]]
compound = "O=C(c1ccccc1)c1ccccc1-n1cc(O[C@@H]2O[C@H](CO)[C@H](O)[C@H](O)[C@H]2O)c2ccc(Cl)cc21 [Indicator I21a]"
property_label = "C: Color of colonies"
recorded_value = "++"

[[record]]
compound = "COc1ccc(C(=O)c2ccccc2-n2cc(O[C@@H]3O[C@H](CO)[C@H](O)[C@H](O)[C@H]3O)c3c(Cl)c(Br)ccc32)c(OC)c1 [Indicator I28a]"
property_label = "C: Color of colonies"
recorded_value = "+/−"

[[record]]
compound = "Cn1cccc1C(=O)c1ccccc1-n1cc(O[C@@H]2O[C@H](CO)[C@H](O)[C@H](O)[C@H]2O)c2ccc(Cl)cc21 [Indicator I31a]"
property_label = "C: Color of colonies"
recorded_value = "+"

[[record]]
compound = "COc1ccc(C(=O)c2ccccc2-n2cc(O[C@@H]3O[C@H](CO)[C@H](O)[C@H](O)[C@H]3O)c3ccccc32)c(OC)c1 [Indicator I25a]"
property_label = "C: Color of colonies"
recorded_value = "+"

